# optical density values compiled below
target: T1, human ACVR2A (human, UniProt P27037 20-135, limits assumed); assay: ELISA; note: test concentration or dose not given here
T1 construct: also called activin receptor, type II A
T1 sequence (P27037 20-135 limits assumed): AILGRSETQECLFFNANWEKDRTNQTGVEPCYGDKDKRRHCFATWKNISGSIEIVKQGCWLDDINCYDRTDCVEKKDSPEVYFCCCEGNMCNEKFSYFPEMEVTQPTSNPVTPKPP
The figure you give is taken to be in OD; do not add the unit.

Worked examples follow.
365_G05 (antibody, V domains shown, Group III) VH: EVQLLESGGGLVQPGGSLRLSCAASGFTFSSYGMNWVRQAPGKGLEWVSGINYNGGYKGYADSVKGRFTISRDNSKNTLYLQMNSLRAEDTAVYYCARGANWHDTALDYWGQGTLVTVSS VL: DIQMTQSPSSLSASVGDRVTITCRASQSILSYLNWYQQKPGKAPKLVIYAATSLASGVPSRFSGSGSGTDFTLTISSLQPEDFATYYCQQSYENPLTFGGGTKVEIK : 2.44
366_A08 (antibody, V domains shown, Group III) VH: EVQLLESGGGLVQPGGSLRLSCAASGFTFDDYSMNWVRQAPGKGLEWVSGINYNSGYKGYADSVKGRFTISRDNSKNTLYLQMNSLRAEDTAVYYCARGANWHDTHLDYWGQGTLVTVSS VL: DIQMTQSPSSLSASVGDRVTITCRASQSIVSYVNWYQQKPGKAPKLVIYAATSRASGVPSRFSGSGSGTDFTLTISSLQPEDFATYYCQQSYNSPLTFGGGTKVEIK : 1.65
367_H01 (antibody, V domains shown, Group I) VH: EVQLLESGGGLVQPGGSLRLSCAASGFTFDSYGMNWVRQAPGKGLEWVSGINYNGGYKSYADSVKGRFTISRDNSKNTLYLQMNSLRAEDTAVYYCARAANWHDTALDYWGQGTLVTVSS VL: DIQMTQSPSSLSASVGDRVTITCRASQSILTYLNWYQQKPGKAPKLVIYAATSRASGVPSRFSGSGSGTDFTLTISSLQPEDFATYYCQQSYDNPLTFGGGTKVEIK : 2.82
367_G03 (antibody, V domains shown, Group II) VH: EVQLLESGGGLVQPGGSLRLSCAASGFTFDSYSMHWVRQAPGKGLEWVANINYNGGYTSYADSVKGRFTISRDNSKNTLYLQMNSLRAEDTAVYYCARAATWHDTHLDYWGQGTLVTVSS VL: DIQMTQSPSSLSASVGDRVTITCRASQSIVSYVNWYQQKPGKAPKLVIYAATSRHSGVPSRFSGSGSGTDFTLTISSLQPEDFATYYCQQSYDLPLTFGGGTKVEIK : 2.59
369_C09 (antibody, V domains shown, Group II) VH: EVQLLESGGGLVQPGGSLRLSCAASGFTFSSYGMHWVRQAPGKGLEWVSSINYNGGYTGYADSVKGRFTISRDNSKNTLYLQMNSLRAEDTAVYYCARAATWHDTHLDYWGQGTLVTVSS VL: DIQMTQSPSSLSASVGDRVTITCRASQSIVSYLNWYQQKPGKAPKLVIYAATSRHSGVPSRFSGSGSGTDFTLTISSLQPEDFATYYCQQSYDLPLTFGGGTKVEIK : 2.88

Shift focus to the following entry.
Name the recorded optical density for 375_H01 (antibody, V domains shown, Group I) VH: EVQLLESGGGLVQPGGSLRLSCAASGFTFSDYSMNWVRQAPGKGLEWVAGINYNSGYTSYADSVKGRFTISRDNSKNTLYLQMNSLRAEDTAVYYCARAANWHDTHLDYWGQGTLVTVSS VL: DIQMTQSPSSLSASVGDRVTITCRASQSILTYLNWYQQKPGKAPKLLIYAATSRHSGVPSRFSGSGSGTDFTLTISSLQPEDFATYYCQQSYSNPLTFGGGTKVEIK . 2.79
